# maps each entry to its IC50 (pM), NK cell assay (IFNγ)
Target: T1, recombinant human IL-23 (human, UniProt Q9NPF7 20-189; P29460 23-328)
T1 sequence 1: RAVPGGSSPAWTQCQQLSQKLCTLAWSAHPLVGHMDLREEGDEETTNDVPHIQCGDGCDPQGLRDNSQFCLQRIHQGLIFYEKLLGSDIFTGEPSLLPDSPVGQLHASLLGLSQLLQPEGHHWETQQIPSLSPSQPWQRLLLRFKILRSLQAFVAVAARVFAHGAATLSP
T1 sequence 2: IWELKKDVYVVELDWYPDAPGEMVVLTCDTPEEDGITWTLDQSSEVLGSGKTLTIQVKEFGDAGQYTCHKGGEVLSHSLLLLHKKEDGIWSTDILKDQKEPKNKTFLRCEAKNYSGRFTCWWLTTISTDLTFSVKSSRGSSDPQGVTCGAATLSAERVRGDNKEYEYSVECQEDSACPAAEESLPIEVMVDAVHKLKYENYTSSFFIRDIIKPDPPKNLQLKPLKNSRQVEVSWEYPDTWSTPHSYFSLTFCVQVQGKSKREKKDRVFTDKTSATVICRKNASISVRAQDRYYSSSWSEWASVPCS
Experiment: cell-based or functional assay
Give the number; pM is assumed, so skip it.

Antibody A (antibody, V domains shown) VH: QVQLQESGPGLVKPSQTLSLTCTVSGGSISSGGYYWSWIRQHPGKGLEWIGYIYYSGSTYYNPSLKSRVTMSVDTSKNQFSLKLSSVTAADTAVYYCAKNRGFYYGMDVWGQGTTVTVSS VL: DIQLTQSPSSVSASVGDRVTITCRASQVISSWFAWYQQKPGKAPNLLIYAASSLQSGVPSRFSGSGSGTDFTLTISSLQPADFATYFCQQANSFPFTFGPGTKVDVK = 42

Shift focus to the following entry.
(Q) Given the binder Antibody B (antibody, V domains shown, also called VH9/VL9) VH: QVQLQESGPGLVKPSQTLSLTCTVSGGSISSGGYYWSWIRQHPGKGLEWIGHIHYSGNTYYNPSLKSRVTISVDTSKNQFSLKLSSVTAADTAVYYCAKNRGFYYGMDVWGQGTTVTVSS VL: DIQMTQSPSSVSASVGDRVTITCRASQVISSWLAWYQQKPGKAPSLLIYAASSLQSGVPSRFSGSVSGTDFTLTISSLQPEDFATYYCQQANSFPFTFGPGTKVDFK , what is its reported IC50 (pM), NK cell assay (IFNγ)?
(A) 48
